Please go through the items and note down their SI1.
system: L. donovani strain 9515 promastigotes; assay: Antipromastigote resazurin assay; format: cell-based, Leishmania donovani; conditions: SI1 = IC50 Vero/IC50 promastigote, L. donovani
// no unit, no text: just the number

In: // fetch L. donovani strain 9515 promastigotes SI1 for "O=[N+]([O-])c1ccc2[nH]ccc2c1"
Out: 2

In: // fetch L. donovani strain 9515 promastigotes SI1 for "O=C1NC(=S)S/C1=C\c1cn(Cc2cccc(Cl)c2)c2ccc([N+](=O)[O-])cc12"
Out: 1

In: // fetch L. donovani strain 9515 promastigotes SI1 for "Cc1ccc(Cn2cc(C=O)c3cc([N+](=O)[O-])ccc32)cc1"
Out: 117

In: // fetch L. donovani strain 9515 promastigotes SI1 for "C#CCn1cc(/C=C2\SC(=S)NC2=O)c2cc([N+](=O)[O-])ccc21"
Out: 0.2

In: // fetch L. donovani strain 9515 promastigotes SI1 for "Cc1ccc(Cn2cc(/C=C3\SC(=S)NC3=O)c3cc([N+](=O)[O-])ccc32)cc1"
Out: 1

In: // fetch L. donovani strain 9515 promastigotes SI1 for "O=Cc1cn(Cc2ccc(F)cc2)c2ccc([N+](=O)[O-])cc12"
Out: 1

====

system: Trypanosoma spp.; assay: Antitrypanosomal assay, several species; type: cell-based; details: read-out: IC50 against several Trypanosoma spp.
recordedMetric: IC50

In: I have this molecule here, C#CCn1cc(/C=C2\SC(=S)NC2=O)c2cc([N+](=O)[O-])ccc21 [3b] , and I need its recorded IC50.
Out: 20 to 40 µM

In: I have this molecule here, O=Cc1cn(Cc2ccc(F)cc2)c2ccc([N+](=O)[O-])cc12 [2e] , and I need its recorded IC50.
Out: 20 to 40 µM

====

Please go through the items and note down their IC50.
assay: General; format: cell-based; conditions: African green monkey, Vero cells (monkey kidney epithelial cells)
Numbers only; they are read as µM.

In: I have this compound here, "O=C1NC(=S)S/C1=C\c1cn(Cc2ccc(F)cc2)c2ccc([N+](=O)[O-])cc12" , and I need its recorded IC50.
Out: 17.4

In: I have this compound here, "Cc1ccc(Cn2cc(/C=C3\SC(=S)NC3=O)c3cc([N+](=O)[O-])ccc32)cc1" , and I need its recorded IC50.
Out: 98.2

In: I have this compound here, "O=C1NC(=S)S/C1=C\c1cn(Cc2ccccc2)c2ccc([N+](=O)[O-])cc12" , and I need its recorded IC50.
Out: 18.8

In: I have this compound here, "O=C1NC(=S)S/C1=C\c1cn(Cc2cccc(Cl)c2)c2ccc([N+](=O)[O-])cc12" , and I need its recorded IC50.
Out: 22.2

====

assay: Host cell toxicity, resazurin assay; format: cell-based; conditions: human
pIC50: −log10 of the molar value.
Please go through the items and note down their pIC50.

In: I have this compound here, "O=[N+]([O-])c1ccc2[nH]ccc2c1" , and I need its recorded pIC50.
Out: < 4.00

In: I have this compound here, "Cc1ccc(Cn2cc(C=O)c3cc([N+](=O)[O-])ccc32)cc1" , and I need its recorded pIC50.
Out: < 4.00

In: I have this compound here, "O=C1CSC(=S)N1/N=C/c1cn(Cc2ccccc2)c2ccc([N+](=O)[O-])cc12" , and I need its recorded pIC50.
Out: < 4.00

Hey, just so you know, these numbers are from paper PMC11901381.
